// values below are reported pEC50
- Experimental Target: α2B Human Adrenergic Receptor (Homo sapiens, UniProt P18089)
- Construct: expressed in transfected cells; host or cells: Y-1 cells
- Sequence (P18089 whole entry): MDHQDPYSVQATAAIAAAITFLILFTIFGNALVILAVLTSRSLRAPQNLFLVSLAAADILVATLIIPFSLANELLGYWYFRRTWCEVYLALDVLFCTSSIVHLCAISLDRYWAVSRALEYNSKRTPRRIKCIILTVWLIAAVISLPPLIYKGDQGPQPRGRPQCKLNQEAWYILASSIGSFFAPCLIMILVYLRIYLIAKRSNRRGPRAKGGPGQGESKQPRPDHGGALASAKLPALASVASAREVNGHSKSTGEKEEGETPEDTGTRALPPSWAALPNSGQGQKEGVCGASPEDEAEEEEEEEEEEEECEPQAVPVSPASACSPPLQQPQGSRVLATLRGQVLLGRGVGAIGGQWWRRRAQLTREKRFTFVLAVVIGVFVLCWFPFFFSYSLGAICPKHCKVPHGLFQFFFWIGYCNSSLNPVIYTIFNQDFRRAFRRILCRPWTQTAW
- Assay type: cell-based
Just so you know, pEC50 here is -log10 of the concentration in molar units; reply with that number alone.

Sample records with pEC50:
| Smiles Record | Recorded Measurement |
| --- | --- |
| CC(C)c1nc2ccc(NC3=NCCN3)c(Br)c2[nH]1 | 7.04 |
| Brc1cc(NC2=NCCN2)cc2[nH]cnc12 | 7.05 |

As a next step, examine the compound that follows.
Input: Look up pEC50: `CCc1nc2ccc(NC3=NCCN3)c(Br)c2[nH]1`
Output: 6.79

###

Known log10(Ki) of a selection of compounds
- Experimental Target: α2B Human Adrenergic Receptor (Homo sapiens, UniProt P18089)
- Construct: expressed in transfected cells; host or cells: Y-1 cells
- Protocol Details: Equilibrium competition binding, [3H] rauwolscine, membranes of transfected Y-1 cells
- Assay Context: cloned human receptor; [3H] rauwolscine; read-out: pKi Alpha-2 B (converted)
Hey, these are logged values: log10 of Ki, nM being the unit before logging.

Answered examples (10):
| Smiles Record | Experimental Target | log10(Ki) |
| --- | --- | --- |
| OCCn1cnc2ccc(NC3=NCCN3)c(Br)c21 | α2B Human Adrenergic Receptor (Homo sapiens, UniProt P18089) | 2.69 |
| Ic1cc(NC2=NCCN2)cc2[nH]cnc12 | α2B Human Adrenergic Receptor (Homo sapiens, UniProt P18089) | 1.44 |
| c1ccc(-c2cc(NC3=NCCN3)cc3[nH]cnc23)cc1 | α2B Human Adrenergic Receptor (Homo sapiens, UniProt P18089) | 1.78 |
| COc1ccc(Cn2cnc3c(Br)c(NC4=NCCN4)ccc32)cc1 | α2B Human Adrenergic Receptor (Homo sapiens, UniProt P18089) | 2.03 |
| Cc1c(N=C2NCCN2)ccc2[nH]cnc12 | α2B Human Adrenergic Receptor (Homo sapiens, UniProt P18089) | 0.96 |
| c1ccc(Cn2cnc3ccc(NC4=NCCN4)cc32)cc1 | α2B Human Adrenergic Receptor (Homo sapiens, UniProt P18089) | 1.95 |
| Brc1c(NC2=NCCN2)ccc2ncn(C3CCCC3)c12 | α2B Human Adrenergic Receptor (Homo sapiens, UniProt P18089) | 1.62 |
| Clc1c(NC2=NCCN2)ccc2nc[nH]c12 | α2B Human Adrenergic Receptor (Homo sapiens, UniProt P18089) | 1.19 |
| Brc1c(NC2=NCCN2)ccc2c1ncn2CC1CCCCC1 | α2B Human Adrenergic Receptor (Homo sapiens, UniProt P18089) | 2.22 |
| Brc1c(NC2=NCCN2)ccc2ncn(Cc3ccccc3)c12 | α2B Human Adrenergic Receptor (Homo sapiens, UniProt P18089) | 1.20 |

Input: Reported log10(Ki), compound `OCCn1cnc2c(Br)c(NC3=NCCN3)ccc21` : ____
Output: 2.72

Input: For `Brc1c(NC2=NCCN2)ccc2nc[nH]c12` then?
Output: 1.31

Input: Next compound up: `CCCCc1cc(NC2=NCCN2)cc2[nH]cnc12`
Output: 2.26

Input: Would you mind doing `CCCCc1c(NC2=NCCN2)ccc2nc[nH]c12` as well?
Output: 1.70

Input: Also `COc1cccc(Cn2cnc3c(Br)c(NC4=NCCN4)ccc32)c1` , if possible.
Output: 1.91

Input: Another compound to check: `CC(C)n1cnc2c(I)c(NC3=NCCN3)ccc21`
Output: 2.33
